Quick record: pIC50, Maize HD1-B (Zea mays, UniProt Q9ZTP8).
pIC50: −log10 of the molar value.
measurement-name: pIC50

> print(dat)
                                   compound                         target.of.assay  assay.result
1  CC(C)C(C(=O)Nc1ccc(C(=O)NO)cn1)c1ccccc1 (stereo not shown)  Maize HD1-B (Zea mays, UniProt Q9ZTP8)          7.96
2  O=C(/C=C/c1ccc(NC(=O)C(c2ccccc2)c2ccccc2)cc1)NO  Maize HD1-B (Zea mays, UniProt Q9ZTP8)          6.79
3  CCC(C(=O)Nc1ccc(/C=C/C(=O)NO)cc1)c1ccccc1 (stereo not shown)  Maize HD1-B (Zea mays, UniProt Q9ZTP8)          7.05
4  CCC(C(=O)Nc1ccc(/C=C/C(=O)NO)cc1)c1cccc2ccccc12 (stereo not shown)  Maize HD1-B (Zea mays, UniProt Q9ZTP8)          7.24
5  O=C(/C=C/c1ccc(NC(=O)C(Cc2ccccc2)c2ccccc2)cc1)NO (stereo not shown)  Maize HD1-B (Zea mays, UniProt Q9ZTP8)          6.88
6  CC(C(=O)Nc1ccc(/C=C/C(=O)NO)cc1)c1ccccc1 (stereo not shown)  Maize HD1-B (Zea mays, UniProt Q9ZTP8)          7.14
7  CCC(C(=O)Nc1ccc(/C=C/C(=O)NO)cc1)c1ccc2ccccc2c1 (stereo not shown)  Maize HD1-B (Zea mays, UniProt Q9ZTP8)          7.21

###

Biological target: UniProt:O09106
Sequence (O09106 whole entry): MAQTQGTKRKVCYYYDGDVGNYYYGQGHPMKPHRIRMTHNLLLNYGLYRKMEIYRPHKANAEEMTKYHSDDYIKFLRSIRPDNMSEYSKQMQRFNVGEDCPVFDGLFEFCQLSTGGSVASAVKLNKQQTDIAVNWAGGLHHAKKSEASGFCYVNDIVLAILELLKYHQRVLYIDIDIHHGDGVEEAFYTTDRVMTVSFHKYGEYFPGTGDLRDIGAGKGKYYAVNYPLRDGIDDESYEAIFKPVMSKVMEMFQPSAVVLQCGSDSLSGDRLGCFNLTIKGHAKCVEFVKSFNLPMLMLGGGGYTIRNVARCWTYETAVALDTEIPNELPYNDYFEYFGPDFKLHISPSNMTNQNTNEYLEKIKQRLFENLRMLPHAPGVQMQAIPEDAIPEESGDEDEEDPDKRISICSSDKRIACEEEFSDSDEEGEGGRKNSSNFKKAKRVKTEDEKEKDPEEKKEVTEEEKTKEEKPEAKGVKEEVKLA
measurement-name: IC50 (nM)

> print(dat)
                                   compound  measurement.name   u  assay.result
1  O=C(/C=C/c1ccc(NC(=O)C(c2ccccc2)c2ccccc2)cc1)NO              IC50  nM           128
2  CC(C)C(C(=O)Nc1ccc(C(=O)NO)cn1)c1ccccc1 (stereo not shown)              IC50  nM            69
3  CCC(C(=O)Nc1ccc(/C=C/C(=O)NO)cc1)c1ccc2ccccc2c1 (stereo not shown)              IC50  nM           560
4  CCC(C(=O)Nc1ccc(/C=C/C(=O)NO)cc1)c1ccccc1 (stereo not shown)              IC50  nM           305
5  CCC(C(=O)Nc1ccc(/C=C/C(=O)NO)cc1)c1cccc2ccccc12 (stereo not shown)              IC50  nM           620
6  CC(C(=O)Nc1ccc(/C=C/C(=O)NO)cc1)c1ccccc1 (stereo not shown)              IC50  nM           291
7  O=C(/C=C/c1ccc(NC(=O)C(Cc2ccccc2)c2ccccc2)cc1)NO (stereo not shown)              IC50  nM            83

###

Molecular target: IP HDAC1 (Homo sapiens)
Sequence (Q13547 whole entry): as the sequence (O09106 whole entry) above, with K8R, E399D, D424E counted along it
Assay: Human HDAC1 assay on immunoprecipitate (IP) from U937 cells
Type: biochemical
measurement-name: inhibition at 5 µM (%)

> print(dat)
                                   compound  assay.result
1  O=C(/C=C/c1ccc(NC(=O)C(c2ccccc2)c2ccccc2)cc1)NO [MC 1855]          78.7
2  CC(C(=O)Nc1ccc(/C=C/C(=O)NO)cc1)c1ccccc1 (centres unmarked) [MC 1857]          79.3
3  CCC(C(=O)Nc1ccc(/C=C/C(=O)NO)cc1)c1ccc2ccccc2c1 (centres unmarked) [MC 2113]          64.9
4  O=C(/C=C/c1ccc(NC(=O)C(Cc2ccccc2)c2ccccc2)cc1)NO (centres unmarked) [MC 1895]          72.5
5  CCC(C(=O)Nc1ccc(/C=C/C(=O)NO)cc1)c1ccccc1 (centres unmarked) [MC 1864]            55
6  Nc1ccccc1NC(=O)c1ccc(CNC(=O)OCc2cccnc2)cc1 [MS 275]          65.4
7  CC(C)C(C(=O)Nc1ccc(C(=O)NO)cn1)c1ccccc1 (centres unmarked) [MC 2195]          46.7
8  CCC(C(=O)Nc1ccc(/C=C/C(=O)NO)cc1)c1cccc2ccccc12 (centres unmarked) [MC 2111]          73.6

###

Molecular target: IP HDAC4 (Homo sapiens, UniProt P56524)
Sequence (P56524 whole entry): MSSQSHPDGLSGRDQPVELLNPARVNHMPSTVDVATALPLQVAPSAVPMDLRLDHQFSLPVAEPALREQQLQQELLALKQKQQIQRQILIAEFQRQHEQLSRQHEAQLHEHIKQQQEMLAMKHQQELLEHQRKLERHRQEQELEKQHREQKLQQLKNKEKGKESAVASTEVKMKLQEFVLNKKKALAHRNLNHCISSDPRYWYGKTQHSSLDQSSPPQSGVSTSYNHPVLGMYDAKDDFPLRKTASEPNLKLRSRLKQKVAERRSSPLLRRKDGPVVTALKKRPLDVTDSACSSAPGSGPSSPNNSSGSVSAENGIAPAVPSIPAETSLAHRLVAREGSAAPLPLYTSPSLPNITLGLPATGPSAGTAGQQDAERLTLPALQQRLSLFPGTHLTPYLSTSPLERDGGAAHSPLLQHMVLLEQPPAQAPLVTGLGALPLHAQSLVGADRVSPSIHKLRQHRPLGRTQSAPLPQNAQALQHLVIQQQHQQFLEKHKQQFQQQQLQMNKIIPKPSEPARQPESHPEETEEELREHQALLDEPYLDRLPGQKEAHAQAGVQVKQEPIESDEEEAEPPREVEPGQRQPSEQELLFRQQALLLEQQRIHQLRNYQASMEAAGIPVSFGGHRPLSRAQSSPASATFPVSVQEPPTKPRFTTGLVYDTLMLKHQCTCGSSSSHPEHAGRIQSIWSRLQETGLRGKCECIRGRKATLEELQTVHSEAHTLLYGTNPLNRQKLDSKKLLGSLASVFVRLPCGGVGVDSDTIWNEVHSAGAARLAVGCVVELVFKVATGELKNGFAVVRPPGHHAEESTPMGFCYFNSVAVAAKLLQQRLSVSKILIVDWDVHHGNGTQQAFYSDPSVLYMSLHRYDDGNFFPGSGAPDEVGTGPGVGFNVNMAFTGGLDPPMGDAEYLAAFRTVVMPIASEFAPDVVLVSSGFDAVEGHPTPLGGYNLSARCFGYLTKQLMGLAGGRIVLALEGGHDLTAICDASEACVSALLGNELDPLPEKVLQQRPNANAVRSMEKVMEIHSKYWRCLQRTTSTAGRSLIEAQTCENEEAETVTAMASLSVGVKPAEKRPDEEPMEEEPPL
Type: biochemical
We begin with a simple list: items and their reported inhibition at 5 µM.
measurement-name: inhibition at 5 µM (%)

> print(dat)
                                   compound  assay.result
1  O=C(/C=C/c1ccc(NC(=O)C(c2ccccc2)c2ccccc2)cc1)NO             0
2  O=C(/C=C/c1ccc(NC(=O)C(Cc2ccccc2)c2ccccc2)cc1)NO (stereo not drawn)          16.1
3  CCC(C(=O)Nc1ccc(/C=C/C(=O)NO)cc1)c1ccc2ccccc2c1 (stereo not drawn)          22.4
4  CCC(C(=O)Nc1ccc(/C=C/C(=O)NO)cc1)c1ccccc1 (stereo not drawn)          60.4
5  CCC(C(=O)Nc1ccc(/C=C/C(=O)NO)cc1)c1cccc2ccccc12 (stereo not drawn)             0
6  CC(C)C(C(=O)Nc1ccc(C(=O)NO)cn1)c1ccccc1 (stereo not drawn)          93.1

###

We begin with a simple list: items and their reported IC50.
Biological target: Maize HD1-A (Zea mays, UniProt Q7XAX9)
Sequence (Q7XAX9 entry or part of it): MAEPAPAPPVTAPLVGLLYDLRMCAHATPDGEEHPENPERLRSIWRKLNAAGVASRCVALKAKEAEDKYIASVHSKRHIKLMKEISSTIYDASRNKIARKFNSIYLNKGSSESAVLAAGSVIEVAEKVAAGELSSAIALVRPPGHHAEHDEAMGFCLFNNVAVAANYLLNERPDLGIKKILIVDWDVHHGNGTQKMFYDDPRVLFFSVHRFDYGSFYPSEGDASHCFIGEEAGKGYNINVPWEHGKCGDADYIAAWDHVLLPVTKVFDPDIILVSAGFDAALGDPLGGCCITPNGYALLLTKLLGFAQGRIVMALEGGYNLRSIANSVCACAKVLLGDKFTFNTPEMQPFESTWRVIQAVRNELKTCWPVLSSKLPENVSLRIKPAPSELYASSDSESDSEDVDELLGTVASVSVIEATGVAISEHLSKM
measurement-name: IC50

> print(dat)
                                   compound                         target.of.assay  assay.result
1  O=C(/C=C/c1ccc(NC(=O)C(Cc2ccccc2)c2ccccc2)cc1)NO (stereo not shown) [MC 1895]  Maize HD1-A (Zea mays, UniProt Q7XAX9)      0.074 µM
2  CC(C(=O)Nc1ccc(/C=C/C(=O)NO)cc1)c1ccccc1 (stereo not shown) [MC 1857]  Maize HD1-A (Zea mays, UniProt Q7XAX9)       0.08 µM
3  CC(C)C(C(=O)Nc1ccc(C(=O)NO)cn1)c1ccccc1 (stereo not shown) [MC 2195]  Maize HD1-A (Zea mays, UniProt Q7XAX9)      0.008 µM
4  CCC(C(=O)Nc1ccc(/C=C/C(=O)NO)cc1)c1ccccc1 (stereo not shown) [MC 1864]  Maize HD1-A (Zea mays, UniProt Q7XAX9)      0.064 µM
5  CCC(C(=O)Nc1ccc(/C=C/C(=O)NO)cc1)c1ccc2ccccc2c1 (stereo not shown) [MC 2113]  Maize HD1-A (Zea mays, UniProt Q7XAX9)      0.069 µM
6  CCC(C(=O)Nc1ccc(/C=C/C(=O)NO)cc1)c1cccc2ccccc12 (stereo not shown) [MC 2111]  Maize HD1-A (Zea mays, UniProt Q7XAX9)      0.042 µM
7  O=C(/C=C/c1ccc(NC(=O)C(c2ccccc2)c2ccccc2)cc1)NO [MC 1855]  Maize HD1-A (Zea mays, UniProt Q7XAX9)      0.055 µM

Provenance of the data: patent US8785493B2
